# MEASURED TARGET: Furin (Homo sapiens)
# PROCEDURE SUMMARY: Inhibition of recombinant soluble human furin using pyroGlu-Arg-Thr-Lys-Arg-methyl-coumaryl-7-amide as substrate measured after 1 hr
RECORDED ENDPOINT: pKi
Friendly reminder that pKi comes from taking -log10 of the concentration in mol/L.

CC(=O)N[C@@H](CCCNC(=N)N)C(=O)N[C@@H](C)C(=O)N[C@@H](CC(N)=O)C(=O)N[C@@H](CCCNC(=N)N)C(=O)N[C@@H](CCCNC(=N)N)C(=O)N[C@@H](CCCCN)C(=O)N[C@@H](CCCCN)C(=O)N[C@@H](CCCNC(=N)N)C(=O)N[C@H](C(N)=O)[C@@H](C)O :: 7.57

As a next step, examine the compound that follows.
// sample CC(=O)N[C@@H](CCCNC(=N)N)C(=O)N[C@@H](C)C(=O)N[C@@H](Cc1c[nH]c2ccccc12)C(=O)N[C@@H](CCCNC(=N)N)C(=O)N[C@@H](CCCNC(=N)N)C(=O)N[C@@H](CCCCN)C(=O)N[C@@H](CCCCN)C(=O)N[C@@H](CCCNC(=N)N)C(=O)N[C@H](C(N)=O)[C@@H](C)O , its pKi was 7.01

* * *

Measured pKi of individual entries
# MEASURED TARGET: Furin (Homo sapiens, UniProt P09958)
# Sequence (P09958 whole entry): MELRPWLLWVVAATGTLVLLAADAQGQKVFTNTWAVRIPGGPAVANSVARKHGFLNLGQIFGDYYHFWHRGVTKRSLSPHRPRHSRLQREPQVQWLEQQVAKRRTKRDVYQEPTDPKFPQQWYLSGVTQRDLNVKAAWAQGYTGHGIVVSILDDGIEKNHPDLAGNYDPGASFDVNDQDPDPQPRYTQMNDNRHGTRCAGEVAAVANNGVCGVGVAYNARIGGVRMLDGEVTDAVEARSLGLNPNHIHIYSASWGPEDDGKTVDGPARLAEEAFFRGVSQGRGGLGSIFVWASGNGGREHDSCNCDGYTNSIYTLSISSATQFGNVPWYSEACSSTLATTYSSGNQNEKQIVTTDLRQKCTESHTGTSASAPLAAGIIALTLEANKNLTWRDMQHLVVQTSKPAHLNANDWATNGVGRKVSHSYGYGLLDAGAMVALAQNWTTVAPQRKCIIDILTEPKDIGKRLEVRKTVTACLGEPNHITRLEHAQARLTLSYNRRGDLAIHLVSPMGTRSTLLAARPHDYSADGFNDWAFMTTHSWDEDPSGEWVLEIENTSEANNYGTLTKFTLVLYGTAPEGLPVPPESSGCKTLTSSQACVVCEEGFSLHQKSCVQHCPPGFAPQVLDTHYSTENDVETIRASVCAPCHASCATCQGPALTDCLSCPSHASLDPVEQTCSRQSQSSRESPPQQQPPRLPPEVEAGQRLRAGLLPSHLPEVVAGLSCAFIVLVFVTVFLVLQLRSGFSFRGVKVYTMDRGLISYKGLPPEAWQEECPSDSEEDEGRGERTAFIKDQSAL
# PROCEDURE SUMMARY: Inhibition of recombinant soluble human furin using pyroGlu-Arg-Thr-Lys-Arg-methyl-coumaryl-7-amide as substrate measured after 1 hr
Friendly reminder that pKi comes from taking -log10 of the concentration in mol/L.

Example entries begin here.
CC(=O)N[C@@H](CCCNC(=N)N)C(=O)N[C@@H](C)C(=O)N[C@@H](CCCNC(=N)N)C(=O)N[C@@H](Cc1c[nH]cn1)C(=O)N[C@@H](CCCNC(=N)N)C(=O)N[C@@H](CCCCN)C(=O)N[C@@H](CCCCN)C(=O)N[C@@H](CCCNC(=N)N)C(=O)N[C@H](C(N)=O)[C@@H](C)O :: 7.66
CC(=O)N[C@@H](CCC(N)=O)C(=O)N[C@@H](C)C(=O)N[C@@H](CCCNC(=N)N)C(=O)N[C@@H](CCCNC(=N)N)C(=O)N[C@@H](CCCNC(=N)N)C(=O)N[C@@H](CCCCN)C(=O)N[C@@H](CCCCN)C(=O)N[C@@H](CCCNC(=N)N)C(=O)N[C@H](C(N)=O)[C@@H](C)O :: 8.00
CC(=O)N[C@@H](CCCNC(=N)N)C(=O)N[C@@H](C)C(=O)N[C@@H](CO)C(=O)N[C@@H](CCCNC(=N)N)C(=O)N[C@@H](CCCNC(=N)N)C(=O)N[C@@H](CCCCN)C(=O)N[C@@H](CCCCN)C(=O)N[C@@H](CCCNC(=N)N)C(=O)N[C@H](C(N)=O)[C@@H](C)O :: 7.54
CC(=O)N[C@@H](CCCNC(=N)N)C(=O)N[C@@H](Cc1c[nH]cn1)C(=O)N[C@@H](CCCNC(=N)N)C(=O)N[C@@H](CCCNC(=N)N)C(=O)N[C@@H](CCCNC(=N)N)C(=O)N[C@@H](CCCCN)C(=O)N[C@@H](CCCCN)C(=O)N[C@@H](CCCNC(=N)N)C(=O)N[C@H](C(N)=O)[C@@H](C)O :: 7.68
CC(=O)N[C@@H](CCCNC(=N)N)C(=O)N[C@@H](CCC(=O)O)C(=O)N[C@@H](CCCNC(=N)N)C(=O)N[C@@H](CCCNC(=N)N)C(=O)N[C@@H](CCCNC(=N)N)C(=O)N[C@@H](CCCCN)C(=O)N[C@@H](CCCCN)C(=O)N[C@@H](CCCNC(=N)N)C(=O)N[C@H](C(N)=O)[C@@H](C)O :: 7.62

// sample CC(=O)N[C@@H](CCCNC(=N)N)C(=O)N[C@@H](C)C(=O)N[C@@H](CCCNC(=N)N)C(=O)NC(C)(C)C(=O)N[C@@H](CCCNC(=N)N)C(=O)N[C@@H](CCCCN)C(=O)N[C@@H](CCCCN)C(=O)N[C@@H](CCCNC(=N)N)C(=O)N[C@H](C(N)=O)[C@@H](C)O , its pKi was 7.47

// sample CC(=O)N[C@@H](CCCNC(=N)N)C(=O)N[C@@H](CCC(N)=O)C(=O)N[C@@H](CCCNC(=N)N)C(=O)N[C@@H](CCCNC(=N)N)C(=O)N[C@@H](CCCNC(=N)N)C(=O)N[C@@H](CCCCN)C(=O)N[C@@H](CCCCN)C(=O)N[C@@H](CCCNC(=N)N)C(=O)N[C@H](C(N)=O)[C@@H](C)O , its pKi was 7.72
